# tested.system: ZmDRIK1-R187-P492 (Zea mays)
# Construct: kinase domain, R187-P492
# Sequence (C0P4K9 1-514): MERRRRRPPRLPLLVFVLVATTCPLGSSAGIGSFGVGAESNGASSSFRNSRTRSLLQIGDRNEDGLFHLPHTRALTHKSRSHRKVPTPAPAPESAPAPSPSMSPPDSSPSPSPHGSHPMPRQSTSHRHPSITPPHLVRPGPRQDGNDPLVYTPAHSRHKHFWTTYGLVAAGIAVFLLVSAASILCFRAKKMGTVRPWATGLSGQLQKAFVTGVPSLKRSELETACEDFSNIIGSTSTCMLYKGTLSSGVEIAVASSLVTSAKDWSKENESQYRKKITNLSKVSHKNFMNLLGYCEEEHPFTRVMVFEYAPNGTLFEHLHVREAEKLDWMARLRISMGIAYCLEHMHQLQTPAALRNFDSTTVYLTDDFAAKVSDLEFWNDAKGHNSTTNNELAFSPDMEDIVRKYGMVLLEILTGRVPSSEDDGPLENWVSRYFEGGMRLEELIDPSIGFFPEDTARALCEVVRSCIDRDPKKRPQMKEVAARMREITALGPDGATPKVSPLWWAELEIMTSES
# assay: biochemical
# measurement.context: read-out: dTm B, DSF, Boltzmann fit, 0.1% DMSO
endpoint.name: ΔTm at 10 µM (°C)

Here is how some molecules turned out for ΔTm at 10 µM.
CC1(C)CNc2cc(NC(=O)c3cccnc3NCc3ccncc3)ccc21 [Motesanib Diphosphate (AMG-706)]
-0.24
C=CC(=O)Nc1cc(Nc2nccc(-c3cn(C)c4ccccc34)n2)c(OC)cc1N(C)CCN(C)C
-0.293
CC(C)(C)c1cnc(CSc2cnc(NC(=O)C3CCNCC3)s2)o1
-0.103
COc1cc(CCc2cc(NC(=O)c3ccc(N4C[C@@H](C)N[C@@H](C)C4)cc3)n[nH]2)cc(OC)c1
0.421
C=CC(=O)Nc1ccc2ncnc(Nc3cccc(Br)c3)c2c1
0.724

[I] FC(F)c1nc2ccccc2n1-c1nc(N2CCOCC2)nc(N2CCOCC2)n1
[II] CCc1nc(-c2cccc(C)c2)c(-c2ccnc(NC(=O)c3ccccc3)c2)s1
[III] OCCn1cc(-c2ccc3c(c2)CC/C3=N\O)c(-c2ccncc2)n1
[IV] CS(=O)(=O)c1ccc(-c2cnc(N)c(C(=O)Nc3ccccc3)n2)cc1
## Task Sort entries by ΔTm at 10 µM from minimum to maximum value. List each label, following the requested order.
## Result II, IV, I, III

[P] Clc1ccc(Nc2nnc(Cc3ccncc3)c3ccccc23)cc1 [Vatalanib (PTK787) 2HCl]
[Q] Cc1nc(Nc2ncc(C(=O)Nc3c(C)cccc3Cl)s2)cc(N2CCN(CCO)CC2)n1
[R] NC(=O)Nc1sc(-c2ccc(F)cc2)cc1C(N)=O
## Task Descending sort on ΔTm at 10 µM required. List each label, following the requested order.
## Result R, P, Q

[A] CNC(=O)c1nn(C)c2c1C(C)(C)Cc1cnc(Nc3ccc(N4CCN(C)CC4)cc3)nc1-2
[B] O=C1NC(=O)C(=Cc2ccc(-c3ccc(F)cc3)o2)S1 (stereo in doubt)
## Task Just curious, which one has the larger ΔTm at 10 µM reading, A or B ? I would appreciate it if you answered with the label of your choice.
## Result A
(A: -0.101 °C, B: -0.47 °C)
